- System: Protein cereblon/Androgen receptor (Homo sapiens), P10275+Q96SW2 [UNDEFINED MUTATION]
- Sequence (P10275 whole entry, looked up, change not shown, canonical isoform): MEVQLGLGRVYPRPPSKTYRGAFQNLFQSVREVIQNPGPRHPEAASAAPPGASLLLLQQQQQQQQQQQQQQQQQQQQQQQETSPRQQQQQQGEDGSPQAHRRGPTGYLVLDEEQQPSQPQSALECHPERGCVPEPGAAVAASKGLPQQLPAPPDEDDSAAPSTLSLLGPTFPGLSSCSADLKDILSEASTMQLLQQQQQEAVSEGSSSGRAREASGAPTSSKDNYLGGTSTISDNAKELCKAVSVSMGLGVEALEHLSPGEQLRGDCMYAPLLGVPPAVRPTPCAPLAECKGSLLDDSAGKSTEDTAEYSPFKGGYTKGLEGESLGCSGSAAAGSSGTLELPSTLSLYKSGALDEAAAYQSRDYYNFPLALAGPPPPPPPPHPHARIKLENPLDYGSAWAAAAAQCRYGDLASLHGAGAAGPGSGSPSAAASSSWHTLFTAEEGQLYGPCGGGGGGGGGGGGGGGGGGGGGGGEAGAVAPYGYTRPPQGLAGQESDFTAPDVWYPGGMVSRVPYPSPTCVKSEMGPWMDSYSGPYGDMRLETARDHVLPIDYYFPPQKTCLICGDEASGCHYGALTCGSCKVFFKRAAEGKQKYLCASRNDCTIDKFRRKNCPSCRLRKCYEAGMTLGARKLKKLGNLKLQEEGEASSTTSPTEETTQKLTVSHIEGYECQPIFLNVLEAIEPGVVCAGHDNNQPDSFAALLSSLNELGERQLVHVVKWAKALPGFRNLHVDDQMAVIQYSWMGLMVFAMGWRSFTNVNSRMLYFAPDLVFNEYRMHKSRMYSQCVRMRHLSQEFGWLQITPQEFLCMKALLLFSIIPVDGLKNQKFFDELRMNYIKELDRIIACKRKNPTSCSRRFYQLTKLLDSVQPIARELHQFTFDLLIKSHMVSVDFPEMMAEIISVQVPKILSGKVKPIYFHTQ
- Sequence (Q96SW2 whole entry, looked up, change not shown, canonical isoform): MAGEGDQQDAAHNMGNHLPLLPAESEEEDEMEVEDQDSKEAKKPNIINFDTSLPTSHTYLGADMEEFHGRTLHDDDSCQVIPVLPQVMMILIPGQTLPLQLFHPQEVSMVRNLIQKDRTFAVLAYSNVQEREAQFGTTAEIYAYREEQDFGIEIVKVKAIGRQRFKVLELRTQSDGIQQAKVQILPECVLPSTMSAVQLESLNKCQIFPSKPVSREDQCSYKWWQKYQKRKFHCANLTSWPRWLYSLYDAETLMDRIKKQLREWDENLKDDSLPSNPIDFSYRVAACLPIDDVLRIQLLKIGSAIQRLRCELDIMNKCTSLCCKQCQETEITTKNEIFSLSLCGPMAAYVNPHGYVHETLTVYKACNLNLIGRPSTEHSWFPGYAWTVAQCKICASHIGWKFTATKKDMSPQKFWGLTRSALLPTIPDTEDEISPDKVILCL
- PROCEDURE SUMMARY: PROTAC activity at CRBN/Androgen receptor splice variant 7 in human VCaP cells assessed as induction of AR-V7 degradation at 1 uM incubated for 24 hrs by Western blot analysis relative to control
- Assay type: cell-based
PROPERTY LABEL: Activity

[
  {
    "MOLECULE": "CC(C)(c1ccc(OCC2CCN(C(=O)CCCCCCNc3cccc4c3C(=O)N(C3CCC(=O)NC3=O)C4=O)CC2)cc1)c1ccc(OC[C@H](O)CCl)cc1 (some centres not stated)",
    "VALUE OBSERVED": "< 5%"
  }
]

Look at each molecule and report its Activity.
1. CC(C)(c1ccc(OCC2CCN(C(=O)CCCCCCCNc3ccc4c(c3)C(=O)N(C3CCC(=O)NC3=O)C4=O)CC2)cc1)c1ccc(OC[C@H](O)CCl)cc1 (some centres not stated)
2. CC(C)(c1ccc(OCC2CCN(C(=O)CCCCCCNc3ccc4c(c3)C(=O)N(C3CCC(=O)NC3=O)C4=O)CC2)cc1)c1ccc(OC[C@H](O)CCl)cc1 (some centres not stated)
3. CC(C)(c1ccc(OCC2CCN(C3CN(C(=O)CCCNc4ccc5c(c4)C(=O)N(C4CCC(=O)NC4=O)C5=O)C3)CC2)cc1)c1ccc(OC[C@H](O)CCl)cc1 (some centres not stated)
4. CC(C)(c1ccc(OCC2CCN(C(=O)CCCCC#Cc3ccc4c(c3)C(=O)N(C3CCC(=O)NC3=O)C4=O)CC2)cc1)c1ccc(OC[C@H](O)CCl)cc1 (some centres not stated)

1: < 5%; 2: < 5%; 3: < 5%; 4: < 5%

Look at each molecule and report its Activity.
1. CC(C)(c1ccc(OCC2CCN(C(=O)CCCCCCOc3ccc4c(c3)C(=O)N(C3CCC(=O)NC3=O)C4=O)CC2)cc1)c1ccc(OC[C@H](O)CCl)cc1 (some centres not stated)
2. CC(C)(c1ccc(OCC2CCN(C(=O)CCCCCOc3ccc4c(c3)C(=O)N(C3CCC(=O)NC3=O)C4=O)CC2)cc1)c1ccc(OC[C@H](O)CCl)cc1 (some centres not stated)

1. < 5%
2. < 5%
